Values from patent US9718819B2

target_under_test: HIV-1 RT wild-type enzyme (Human immunodeficiency virus type 1 group M subtype B (isolate HXB2) (HIV-1), UniProt P04585)
run_description: HIV-1 reverse transcriptase inhibitory activity (RT polymerase assay)
Format: biochemical
settings: HIV-1 RT wild-type enzyme 83 pM; RNA-dependent DNA polymerase activity; read-out: IC50
quantity_kind: IC50 (nM)
Give just the numeric value; nM need not be written.

compound	experimental_value
Cn1nccc1-c1cc(Cn2cnc(C(F)(F)F)c(Oc3cc(Cl)cc(C#N)c3)c2=O)c(=O)[nH]n1	7
N#Cc1cc(Cl)cc(Oc2c(C(F)(F)F)ncn(Cc3cc(Cl)c(=O)[nH]n3)c2=O)c1	6
N#Cc1cc(Cl)cc(Oc2c(C(F)(F)F)ncn(Cc3cc(-c4cnc5ccccc5c4)c(=O)[nH]n3)c2=O)c1	17
N#Cc1cc(Oc2c(C(F)(F)F)ncn(Cc3cc(-c4ccc(F)cc4)c(=O)[nH]n3)c2=O)cc(OC(F)F)c1	6
N#Cc1cc(Cl)cc(Oc2c(C(F)(F)F)ncn(Cc3cc(-c4ccc(C(O)C(F)F)cc4)n[nH]c3=O)c2=O)c1 (stereo not shown)	8

## Task Name the recorded IC50 for `N#Cc1cc(Cl)cc(Oc2c(C(F)(F)F)ncn(Cc3cnc(C#N)[nH]c3=O)c2=O)c1` .
## Result 94

## Task Name the recorded IC50 for `N#Cc1cc(Cl)cc(Oc2c(OC(F)F)ncn(Cc3ccc(=O)[nH]n3)c2=O)c1` .
## Result 79

* * *

Recorded IC50 values for a group of compounds are listed next.
target_under_test: HIV-1 RT wild-type enzyme (Human immunodeficiency virus type 1 group M subtype B (isolate HXB2) (HIV-1), UniProt P04585)
run_description: HIV-1 reverse transcriptase inhibitory activity (RT polymerase assay)
Assay type: biochemical
settings: HIV-1 RT wild-type enzyme 83 pM; RNA-dependent DNA polymerase activity; read-out: IC50
Give just the numeric value; nM need not be written.

For orientation, consider the following solved cases.
chemical_structure	experimental_value
CNc1ncc(Cn2cnc(C(F)(F)F)c(Oc3cc(Cl)cc(C#N)c3)c2=O)c(=O)[nH]1	9
COc1ccc(-c2cc(Cn3cnc(C(F)(F)F)c(Oc4cc(Cl)cc(C#N)c4)c3=O)n[nH]c2=O)cn1	17
N#Cc1cc(Cl)cc(Oc2c(C(F)(F)F)ncn(Cc3cc(-c4ccc(F)c(F)c4)n[nH]c3=O)c2=O)c1	5
N#Cc1cc(Cl)cc(Oc2c(C(F)(F)F)ncn(Cc3ccc(=O)[nH]n3)c2=O)c1	8
N#Cc1cc(Cl)cc(Oc2c(C(F)(F)F)ncn(Cc3cc(-c4cccc(F)c4)n[nH]c3=O)c2=O)c1	6
N#Cc1cc(Cl)cc(Oc2c(C(F)(F)F)ncn(Cc3cnc(-c4ccc(F)cc4)[nH]c3=O)c2=O)c1	19

Now for a further compound.
## Task Name the recorded IC50 for `N#Cc1cc(Cl)cc(Oc2c(C(F)(F)F)ncn(Cc3cc(O)c(=O)[nH]n3)c2=O)c1` .
## Result 223

* * *

Recorded log10 IC50 values for a group of molecules are listed next.
target_under_test: HIV-1 RT wild-type enzyme (Human immunodeficiency virus type 1 group M subtype B (isolate HXB2) (HIV-1), UniProt P04585)
run_description: HIV-1 reverse transcriptase inhibitory activity (RT polymerase assay)
Format: biochemical
settings: HIV-1 RT wild-type enzyme 83 pM; RNA-dependent DNA polymerase activity; read-out: IC50
log10 IC50, nM

For orientation, consider the following solved cases.
chemical_structure	log10 IC50
CNc1ncc(Cn2cnc(C(F)(F)F)c(Oc3cc(Cl)cc(C#N)c3)c2=O)c(OC)n1	1.04
CC(=O)c1ncc(Cn2cnc(C(F)(F)F)c(Oc3cc(Cl)cc(C#N)c3)c2=O)c(=O)[nH]1	1.38
Cn1cc(-c2cc(Cn3cnc(C(F)(F)F)c(Oc4cc(Cl)cc(C#N)c4)c3=O)c(=O)[nH]n2)cn1	1.00

## Task Name the recorded log10 IC50 for `N#Cc1cc(Cl)cc(Oc2c(C(F)(F)F)ncn(Cc3cnc(C(F)F)[nH]c3=O)c2=O)c1` .
## Result 1.51

## Task Name the recorded log10 IC50 for `CC(F)(F)c1ncn(Cc2cc(-c3ccc(F)cc3)c(=O)[nH]n2)c(=O)c1Oc1cccc(C#N)c1F` .
## Result 0.48

## Task Name the recorded log10 IC50 for `CC(F)(F)c1cc(Cn2cnc(C(F)(F)F)c(Oc3cc(Cl)cc(C#N)c3)c2=O)c(=O)[nH]n1` .
## Result 0.78

## Task Name the recorded log10 IC50 for `N#Cc1cc(Cl)cc(Oc2c(C(F)(F)F)ncn(Cc3cc(-c4cccc(F)c4)c(=O)[nH]n3)c2=O)c1` .
## Result 0.70
